test: Chemical stability of compound in PBS buffer assessed as compound remaining at pH 7.4 at 5 uM measured after 6 hrs by LC-MS/MS analysis; type: physicochemical; conditions: read-out: Stabilty
measured-quantity: remaining at 6 h, 5 µM (%)

Before answering, review these 5 worked examples.
CCOC(=O)[C@@H](Cc1cn(C)c2ccccc12)NC(=O)[C@@H](N)CCC(N)=O.Cl; 67
Cl.Cn1cc(C[C@@H](NC(=O)[C@@H](N)CCCCN)C(=O)O)c2ccccc21; 93
Cl.Cn1cc(C[C@@H](N)C(=O)OCC2CCNCC2)c2ccccc21; 92
Cl.Cn1cc(C[C@@H](NC(=O)[C@@H](N)CCC(N)=O)C(=O)O)c2ccccc21; 100
Cl.Cn1cc(C[C@@H](N)C(=O)N[C@H](Cc2cn(C)c3ccccc23)C(=O)O)c2ccccc21; 100

P = Cl.Cn1cc(C[C@@H](NC(=O)[C@H](N)Cc2c[nH]c3ccccc23)C(=O)O)c2ccccc21
Q = Cl.Cn1cc(C[C@@H](NC(=O)[C@@H](N)Cc2c[nH]c3ccccc23)C(=O)O)c2ccccc21
R = CN(C)CCOC(=O)[C@H](N)Cc1cn(C)c2ccccc12.Cl
Query: Put these in order: smallest remaining at 6 h, 5 µM first, largest last. Respond with the label ranking, as requested.
Response: R, Q, P
(R: 0%, Q: 55%, P: 81%)
